- Test system: Staphylococcus epidermidis CCM 4418 (ATCC 12228)
- Protocol: Antibacterial microdilution broth (EUCAST), SE
- Type: cell-based
- Test Conditions: read after 24 h, read-out: SE MIC
Quantity Name: MIC

Return reported MIC values for all items listed beneath this line.
1. COC(=O)c1nccnc1NC(=O)c1ccc(OC)cc1
2. NC(=O)c1nccnc1NC(=O)C12CC3CC(CC(C3)C1)C2

Reply:
> 500 µM
> 500 µM

Return reported MIC values for all items listed beneath this line.
1. NC(=O)c1nccnc1NC(=O)c1ccc([N+](=O)[O-])cc1
2. NC(=O)c1nccnc1NC(=O)CCc1ccccc1
3. NC(=O)c1nccnc1NC(=O)c1ccccc1Cl
4. O=c1[nH]c(-c2ccccc2)nc2nccnc12
5. CN(C)C(=O)c1nccnc1NC(=O)c1ccc(Cl)cc1
6. NC(=O)c1nccnc1NC(=O)Cc1ccc(F)cc1
7. COC(=O)c1nccnc1NC(=O)c1ccc(Br)cc1 [Compound 18e]

Reply:
1. > 125 µM
2. > 500 µM
3. > 500 µM
4. > 125 µM
5. > 500 µM
6. > 250 µM
7. > 500 µM

Return reported MIC values for all items listed beneath this line.
1. Cc1ccc(C(=O)Nc2nccnc2C(=O)N(C)C)cc1
2. CCCCCCCC(=O)Nc1nccnc1C(N)=O

Reply:
> 125 µM
> 250 µM

* * *

Please provide measured MIC for the entries that follow.
- System: M. aurum DSM 43999 (ATCC 23366)
- Protocol: Microplate Alamar Blue Assay (MABA), M. aurum
- Format: cell-based
- Test Conditions: Mycolicibacterium aurum, 72 h, read-out: M. aurum MIC

>>> measured_value("NC(=O)c1nccnc1NC(=O)c1cccc(Br)c1 [Compound 17]")
"≥ 125 mg/L"

Return reported MIC values for all items listed beneath this line.
1. COC(=O)c1nccnc1NC(=O)C12CC3CC(CC(C3)C1)C2 [Compound 28e]
2. NC(=O)c1nccnc1NC(=O)c1cccc(F)c1 [Compound 11]

Reply:
1: ≥ 125 mg/L; 2: ≥ 125 mg/L

Return reported MIC values for all items listed beneath this line.
1. NC(=O)c1nccnc1NC(=O)c1cc(Cl)cc(Cl)c1 [Compound 19]
2. COc1ccc(C(=O)Nc2nccnc2C(N)=O)cc1 [Compound 9]
3. NC(=O)c1nccnc1NC(=O)c1cccc(Cl)c1 [Compound 14]

Reply:
1: ≥ 62.5 mg/L; 2: ≥ 125 mg/L; 3: ≥ 125 mg/L

* * *

- System: Candida parapsilosis CCM 8260 (ATCC 22019)
- Protocol: Antifungal microdilution broth (EUCAST), CP
- Assay type: cell-based
- Test Conditions: Lodderomyces parapsilosis; read after 24 h; read-out: CP MIC
Please provide measured MIC for the entries that follow.

>>> measured_value("O=c1[nH]c(-c2ccc(F)cc2)nc2nccnc12")
"> 125 µM"
>>> measured_value("NC(=O)c1nccnc1NC(=O)c1ccc(Cl)cc1")
"> 125 µM"
>>> measured_value("CCc1ccc(C(=O)Nc2nccnc2C(N)=O)cc1")
"> 250 µM"
>>> measured_value("NC(=O)c1nccnc1NC(=O)c1ccc(F)cc1")
"> 500 µM"
>>> measured_value("COC(=O)c1nccnc1NC(=O)c1ccccc1Br [Compound 16e]")
"> 500 µM"

Return reported MIC values for all items listed beneath this line.
1. Cc1cccc(C(=O)Nc2nccnc2C(N)=O)c1
2. COC(=O)c1nccnc1NC(=O)C1CCCCC1 [Compound 27e]
3. COC(=O)c1nccnc1NC(=O)c1cccc(Br)c1 [Compound 17e]
4. COC(=O)c1nccnc1NC(=O)c1ccc(OC)cc1
5. COc1cccc(C(=O)Nc2nccnc2C(N)=O)c1

Reply:
1: > 500 µM; 2: > 500 µM; 3: > 500 µM; 4: > 500 µM; 5: > 500 µM

* * *

Please provide measured MIC for the entries that follow.
- System: Candida parapsilosis CCM 8260 (ATCC 22019)
- Protocol: Antifungal microdilution broth (EUCAST), CP
- Format: cell-based
- Test Conditions: Lodderomyces parapsilosis; read after 24 h; read-out: CP MIC

Recorded results for 3 compounds are shown here.
>>> measured_value("NC(=O)c1nccnc1NC(=O)c1cccc(Br)c1")
"> 125 µM"
>>> measured_value("NC(=O)c1nccnc1NC(=O)c1ccccc1")
"> 500 µM"
>>> measured_value("CCCC(=O)Nc1nccnc1C(N)=O")
"> 500 µM"

Turning now to a further compound:
Query: State its MIC on Candida parapsilosis CCM 8260 (ATCC 22019): NC(=O)c1nccnc1NC(=O)c1ccc(Br)cc1
Reply: > 125 µM

* * *

- Tested on: Staphylococcus epidermidis CCM 4418 (ATCC 12228)
- Protocol: Antibacterial microdilution broth (EUCAST), SE
- Type: cell-based
- Test Conditions: read after 24 h, read-out: SE MIC
Quantity Name: MIC

Recorded results for 2 compounds are shown here.
>>> measured_value("NC(=O)c1nccnc1NC(=O)c1ccccc1")
"> 500 µM"
>>> measured_value("COC(=O)c1nccnc1NC(=O)c1cccc(Cl)c1 [Compound 14e]")
"> 500 µM"

Turning now to a further compound:
Query: Requested field: MIC. Item: NC(=O)c1nccnc1NC(=O)c1cccc(F)c1
Reply: > 250 µM

* * *

- Tested on: Klebsiella pneumoniae CCM 4415 (ATCC 10031)
- Protocol: Antibacterial microdilution broth (EUCAST), KP
- Test Conditions: read after 24 h
Quantity Name: KP MIC

>>> measured_value("COC(=O)c1nccnc1NC(=O)C12CC3CC(CC(C3)C1)C2 [Compound 28e]")
"> 125 µM"
>>> measured_value("O=c1[nH]c(-c2ccc(Br)cc2)nc2nccnc12 [Compound 43]")
"> 125 µM"

Return reported KP MIC values for all items listed beneath this line.
1. COC(=O)c1nccnc1NC(=O)C1CCCCC1 [Compound 27e]
2. NC(=O)c1nccnc1NC(=O)c1cc(Cl)cc(Cl)c1 [Compound 19]
3. CNC(=O)c1nccnc1NC(=O)c1ccc(Cl)cc1 [Compound 34]
4. COC(=O)c1nccnc1NC(=O)c1ccc(OC)cc1 [Compound 9e]
5. NC(=O)c1nccnc1NC(=O)C12CC3CC(CC(C3)C1)C2 [Compound 28]
6. CC(C)(C)c1ccc(C(=O)Nc2nccnc2C(N)=O)cc1 [Compound 6]
7. NC(=O)c1nccnc1NC(=O)c1ccc(Cl)cc1 [Compound 15]

Reply:
1: > 500 µM; 2: > 500 µM; 3: > 125 µM; 4: > 500 µM; 5: > 500 µM; 6: > 125 µM; 7: > 500 µM

Return reported KP MIC values for all items listed beneath this line.
1. CCCCCC(=O)Nc1nccnc1C(N)=O [Compound 30]
2. Cc1ccc(C(=O)Nc2nccnc2C(N)=O)cc1 [Compound 4]
3. NC(=O)c1nccnc1NC(=O)C1CCCCC1 [Compound 27]
4. COc1ccc(C(=O)Nc2nccnc2C(N)=O)cc1 [Compound 9]
5. CCCCCCC(=O)Nc1nccnc1C(N)=O [Compound 31]

Reply:
1. > 500 µM
2. > 500 µM
3. > 500 µM
4. > 125 µM
5. > 125 µM

Return reported KP MIC values for all items listed beneath this line.
1. COC(=O)c1nccnc1NC(=O)c1ccc(Br)cc1 [Compound 18e]
2. O=c1[nH]c(-c2ccc(F)cc2)nc2nccnc12 [Compound 41]
3. CCCC(=O)Nc1nccnc1C(N)=O [Compound 29]
4. COC(=O)c1nccnc1NC(=O)c1cccc(Cl)c1 [Compound 14e]
5. Cc1ccc(-c2nc3nccnc3c(=O)[nH]2)cc1 [Compound 40]
6. NC(=O)c1nccnc1NC(=O)c1cccc(Cl)c1 [Compound 14]
7. CCc1ccc(C(=O)Nc2nccnc2C(N)=O)cc1 [Compound 5]
8. Cc1ccc(C(=O)Nc2nccnc2C(=O)N(C)C)cc1 [Compound 36]

Reply:
["> 500 µM", "> 125 µM", "> 500 µM", "> 500 µM", "> 125 µM", "> 125 µM", "> 250 µM", "> 125 µM"]

* * *

- Tested on: Staphylococcus aureus subsp. aureus methicillin-resistant (MRSA) CCM 4750 (ATCC 43300)
- Protocol: Antibacterial microdilution broth (EUCAST), MRSA
- Assay type: cell-based
- Test Conditions: Staphylococcus aureus; read after 24 h; read-out: MRSA MIC
Please provide measured MIC for the entries that follow.

Recorded results for 8 compounds are shown here.
>>> measured_value("Cc1ccc(C(=O)Nc2nccnc2C(=O)N(C)C)cc1")
"> 125 µM"
>>> measured_value("COC(=O)c1nccnc1NC(=O)c1ccc(Br)cc1 [Compound 18e]")
"> 500 µM"
>>> measured_value("CC(C)(C)c1ccc(C(=O)Nc2nccnc2C(N)=O)cc1")
"> 125 µM"
>>> measured_value("NC(=O)c1nccnc1NC(=O)c1ccccc1")
"> 500 µM"
>>> measured_value("O=c1[nH]c(-c2ccc(Br)cc2)nc2nccnc12")
"> 125 µM"
>>> measured_value("COc1cccc(C(=O)Nc2nccnc2C(N)=O)c1")
"> 500 µM"
>>> measured_value("CCCCCC(=O)Nc1nccnc1C(N)=O")
"> 500 µM"
>>> measured_value("NC(=O)c1nccnc1NC(=O)C1CCCCC1")
"> 500 µM"

Return reported MIC values for all items listed beneath this line.
1. O=c1[nH]c(-c2ccc(Cl)cc2)nc2nccnc12
2. CCc1ccc(C(=O)Nc2nccnc2C(N)=O)cc1

Reply:
1: > 125 µM; 2: > 250 µM

Origin of values: paper PMC9687610
